- Tested on: T-47D spheroids with HUVEC/MSC, viability
- ASSAY_EXPLANATION: Anticancer human tumor T-47D cell line growth inhibition [PI3K];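 also: spheroids exposed to agents for seven days before reading; percent of DMSO vehicle control luminescence so 100% = untreated growth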
- APPLIED_CONDITIONS: second compound 1 µM; first compound 0.001 µM; hits give low values
Parameter viability, T/C: see the listing below.
PROPERTY_LABEL: viability, T/C

MOLECULE: Cn1ncnc1[C@H]1c2n[nH]c(=O)c3cc(F)cc(c23)N[C@@H]1c1ccc(F)cc1 + CC(Nc1ccc2c(c1)OCCn1cc(N3C(=O)OCC3C(F)F)nc1-2)C(N)=O
RESULT: 48.5%
//
MOLECULE: Cn1ncnc1[C@H]1c2n[nH]c(=O)c3cc(F)cc(c23)N[C@@H]1c1ccc(F)cc1 + CC(Nc1ncnc2nc[nH]c12)c1cc2cccc(Cl)c2c(=O)n1-c1ccccc1
RESULT: 89.6%
//
MOLECULE: Cn1ncnc1[C@H]1c2n[nH]c(=O)c3cc(F)cc(c23)N[C@@H]1c1ccc(F)cc1 + Cc1nc(NC(=O)N2CCCC2C(N)=O)sc1-c1ccnc(C(C)(C)C(F)(F)F)c1
RESULT: 89.3%
//
MOLECULE: CC(=O)c1c(C)c2cnc(Nc3ccc(N4CCNCC4)cn3)nc2n(C2CCCC2)c1=O + Cc1nc(NC(=O)N2CCCC2C(N)=O)sc1-c1ccnc(C(C)(C)C(F)(F)F)c1
RESULT: 90.7%
